This listing pairs compounds with measured melting point.
Where a name gives a salt, the structure may show the parent alone.

[
  {
    "compound": "Clc1ccc2[nH]cc([C@H]3CC[C@@H](N4CCN(c5cccc6[nH]ccc56)CC4)CC3)c2c1 (as salt: HCl) (hydrate or solvate) [Example 6a]",
    "melting point": "283 to 285 °C"
  },
  {
    "compound": "COc1cc(N2CCN([C@H]3CC[C@@H](c4cn(C)c5ccc(C#N)cc54)CC3)CC2)c2ncc(C)cc2c1 [Example 51b]",
    "melting point": "190 to 191.5 °C"
  },
  {
    "compound": "COc1ccc(F)cc1N1CCN([C@H]2CC[C@H](c3c[nH]c4ccc(F)cc43)CC2)CC1 (as salt: HCl) [Example 22b]",
    "melting point": "272 to 273.5 °C"
  }
]

###

Counter-ions that a name gives are not always drawn.
This listing pairs molecules with measured melting point.
propertyLabel: melting point

[
  {
    "molecule": "c1cc(N2CCN([C@H]3CC[C@@H](c4c[nH]c5ccccc54)CC3)CC2)c2cc[nH]c2c1 (as salt: HCl) [Example 1a]",
    "propertyLabel": "melting point",
    "readoutValue": "198 to 200 °C"
  },
  {
    "molecule": "CCCn1cc([C@H]2CC[C@@H](N3CCN(c4cccc5[nH]ccc45)CC3)CC2)c2cc(C#N)ccc21 (as salt: HCl) (hydrate or solvate) [Example 14a]",
    "propertyLabel": "melting point",
    "readoutValue": "200 to 206 °C"
  },
  {
    "molecule": "N#Cc1ccc2[nH]cc([C@H]3CC[C@H](N4CCN(c5cccc6[nH]ccc56)CC4)CC3)c2c1 (as salt: HCl) [Example 7b]",
    "propertyLabel": "melting point",
    "readoutValue": "> 310 °C"
  },
  {
    "molecule": "N#Cc1ccc2[nH]cc([C@H]3CC[C@H](N4CCN(c5cc(F)cc6c5OCC6)CC4)CC3)c2c1 (as salt: HCl) (hydrate or solvate) [Example 33b]",
    "propertyLabel": "melting point",
    "readoutValue": "330 to 331 °C"
  },
  {
    "molecule": "c1cc(N2CCN([C@H]3CC[C@H](c4c[nH]c5ncccc54)CC3)CC2)c2cc[nH]c2c1 (as salt: HCl) [Example 10b]",
    "propertyLabel": "melting point",
    "readoutValue": "> 250 °C (dec.)"
  },
  {
    "molecule": "Cn1cc([C@H]2CC[C@@H](N3CCN(c4cccc5cccnc45)CC3)CC2)c2cc(F)ccc21 (as salt: HCl) (hydrate or solvate) [Example 28]",
    "propertyLabel": "melting point",
    "readoutValue": "261 to 263.5 °C"
  },
  {
    "molecule": "N#Cc1ccc2[nH]cc(C3=CCC(N4CCN(c5cccc6[nH]ccc56)CC4)CC3)c2c1 (stereo not shown) (as salt: HCl) [Example 36]",
    "propertyLabel": "melting point",
    "readoutValue": "199 to 201 °C"
  },
  {
    "molecule": "COc1ccccc1C1CCN([C@H]2CC[C@H](c3c[nH]c4ccc(F)cc43)CC2)CC1 (as salt: HCl) [Example 19b]",
    "propertyLabel": "melting point",
    "readoutValue": "297 to 299 °C"
  },
  {
    "molecule": "COc1cc(N2CCN([C@H]3CC[C@H](c4c[nH]c5ccc(C#N)cc54)CC3)CC2)c2cc[nH]c2c1 (as salt: HCl) [Example 68b]",
    "propertyLabel": "melting point",
    "readoutValue": "> 210 °C"
  },
  {
    "molecule": "CN(C)C(=O)c1cc(N2CCN([C@H]3CC[C@H](c4cn(C)c5ccc(C#N)cc54)CC3)CC2)c2ncccc2c1 [Example 77b]",
    "propertyLabel": "melting point",
    "readoutValue": "160 to 163 °C"
  },
  {
    "molecule": "Cn1cc([C@H]2CC[C@@H](N3CCN(c4cc(F)cc5c4OCC5)CC3)CC2)c2cc(C#N)ccc21 (as salt: HCl) [Example 33c]",
    "propertyLabel": "melting point",
    "readoutValue": "282 to 284 °C"
  },
  {
    "molecule": "COc1ccc2[nH]cc([C@H]3CC[C@H](N4CCN(c5ccccc5OC)CC4)CC3)c2c1 (as salt: HCl) [Example 20b]",
    "propertyLabel": "melting point",
    "readoutValue": "195 to 197 °C"
  },
  {
    "molecule": "Cn1cc([C@H]2CC[C@H](N3CCN(c4cc(C=O)cc5cccnc45)CC3)CC2)c2cc(C#N)ccc21 [Example 72]",
    "propertyLabel": "melting point",
    "readoutValue": "201 to 203 °C"
  }
]
